Cited source: paper PMC11744766

target: human cathepsin L (Homo sapiens, UniProt P07711); construct: His-tag (only implied by the Ni-NTA capture and the pET-28a(+) vector); host or cells: E. coli C43(DE3); experiment: Kinetic assay of human cathepsin L inhibition (Z-LR-AMC / Z-FR-AMC fluorescence); format: biochemical; conditions: 25 °C, pH 5.5; time-dependent inhibitors at t ∼ 30 min (steady-state); read-out: Ki * (nM) hCat L
Sequence (P07711 114-333): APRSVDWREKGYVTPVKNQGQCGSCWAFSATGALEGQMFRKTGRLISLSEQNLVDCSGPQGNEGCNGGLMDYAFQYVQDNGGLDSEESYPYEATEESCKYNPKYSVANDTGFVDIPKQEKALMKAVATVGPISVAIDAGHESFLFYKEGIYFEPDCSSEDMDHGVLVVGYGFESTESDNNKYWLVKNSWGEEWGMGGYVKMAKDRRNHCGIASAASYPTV
measure_name: Ki (nM)
A number alone suffices; assume nM.

Kindly note the recorded Ki for CC(C)CC(NC(=O)c1cc2ccccc2[nH]1)C(=O)NC(C=O)Cc1ccc[nH]c1=O (stereo not shown) [Compound 4] , which is 17

get_value(item= CC(C)C[C@H](NC(=O)OCc1ccccc1)C(=O)N[C@@H](CC1CCCCC1)C(=O)N[C@H](C=O)Cc1ccc[nH]c1=O [Compound 3] , readout=Ki) returns 8

In plain terms, O=CC(Cc1ccc[nH]c1=O)NC(=O)C(CC1CCCCC1)NC(=O)c1cc2ccccc2[nH]1 (stereo not shown) [Compound 5] has a documented Ki of 9

Just so you know, measured Ki for COc1cccc2[nH]c(C(=O)N[C@@H](CC(C)C)C(=O)N[C@H](C=O)Cc3cocn3)cc12 [Compound 8] came out at 1.1
